target: T1, recombinant human PD-L1 expressed with a C-terminal myc-myc-hexahistidine tag (hPD-L1-MMH) (human)
T1 construct: Monomeric PD-L1 reagent; also called hPD-L1-MMH Monomer
T1 sequence (chain, as listed by the source limits assumed): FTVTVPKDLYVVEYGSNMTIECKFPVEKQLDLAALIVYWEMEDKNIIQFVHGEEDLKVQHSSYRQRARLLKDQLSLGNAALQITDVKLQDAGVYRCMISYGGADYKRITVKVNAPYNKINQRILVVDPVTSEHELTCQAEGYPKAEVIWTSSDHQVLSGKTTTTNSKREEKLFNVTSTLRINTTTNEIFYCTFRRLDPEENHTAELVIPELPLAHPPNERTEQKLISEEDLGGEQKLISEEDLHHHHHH
test name: SPR, captured mAb, 25 C
experimental readout: t1/2 (min)
Could you give me the number in min? Just the number is fine.

Below, each entry is followed by its recorded t1/2 result.
binder	uom	numeric readout
H2aM8323N (antibody, mouse IgG2, V domains shown, also called H2M8323N) VH: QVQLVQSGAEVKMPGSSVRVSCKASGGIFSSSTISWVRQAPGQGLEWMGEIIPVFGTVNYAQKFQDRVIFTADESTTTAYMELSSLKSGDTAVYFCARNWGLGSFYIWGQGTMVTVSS VL: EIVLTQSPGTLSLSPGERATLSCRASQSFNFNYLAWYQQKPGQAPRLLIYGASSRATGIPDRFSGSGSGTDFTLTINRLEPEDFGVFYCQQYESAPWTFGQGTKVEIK	min	52
H2aM8314N (antibody, mouse IgG2, V domains shown, also called H2M8314N) VH: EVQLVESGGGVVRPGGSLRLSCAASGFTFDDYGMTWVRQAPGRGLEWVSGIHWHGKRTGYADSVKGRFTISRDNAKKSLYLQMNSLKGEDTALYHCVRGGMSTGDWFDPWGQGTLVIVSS VL: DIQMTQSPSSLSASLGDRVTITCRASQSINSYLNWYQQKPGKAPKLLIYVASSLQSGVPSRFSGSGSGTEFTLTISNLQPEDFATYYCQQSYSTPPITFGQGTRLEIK	min	224
H2aM8310N (antibody, mouse IgG2, V domains shown, also called H2M8310N) VH: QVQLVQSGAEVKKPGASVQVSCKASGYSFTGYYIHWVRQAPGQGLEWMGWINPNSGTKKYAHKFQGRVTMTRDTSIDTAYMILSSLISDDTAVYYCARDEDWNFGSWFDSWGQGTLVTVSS VL: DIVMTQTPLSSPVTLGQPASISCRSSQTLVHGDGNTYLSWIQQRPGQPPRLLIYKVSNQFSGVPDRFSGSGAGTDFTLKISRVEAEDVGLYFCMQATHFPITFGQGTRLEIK	min	37
H1H9336P (antibody, human IgG1, V domains shown) VH: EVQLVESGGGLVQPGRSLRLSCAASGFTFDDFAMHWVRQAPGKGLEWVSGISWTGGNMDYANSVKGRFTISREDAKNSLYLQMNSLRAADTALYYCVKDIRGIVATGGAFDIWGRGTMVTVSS VL: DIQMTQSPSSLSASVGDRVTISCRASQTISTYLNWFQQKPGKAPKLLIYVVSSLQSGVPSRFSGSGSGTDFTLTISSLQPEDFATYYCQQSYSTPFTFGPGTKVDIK	min	30
H1H9329P (antibody, human IgG1, V domains shown) VH: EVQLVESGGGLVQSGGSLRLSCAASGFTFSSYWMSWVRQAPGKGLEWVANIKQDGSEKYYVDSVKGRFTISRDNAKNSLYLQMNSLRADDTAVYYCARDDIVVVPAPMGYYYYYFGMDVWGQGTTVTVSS VL: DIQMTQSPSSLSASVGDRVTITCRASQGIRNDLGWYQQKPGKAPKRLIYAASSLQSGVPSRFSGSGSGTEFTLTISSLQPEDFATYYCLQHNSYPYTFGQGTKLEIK	min	0.1

Suppose we examine the binder H2aM8317N (antibody, mouse IgG2, V domains shown, also called H2M8317N) VH: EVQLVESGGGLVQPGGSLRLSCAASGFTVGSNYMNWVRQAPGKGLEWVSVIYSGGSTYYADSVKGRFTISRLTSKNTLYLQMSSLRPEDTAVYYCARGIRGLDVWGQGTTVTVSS VL: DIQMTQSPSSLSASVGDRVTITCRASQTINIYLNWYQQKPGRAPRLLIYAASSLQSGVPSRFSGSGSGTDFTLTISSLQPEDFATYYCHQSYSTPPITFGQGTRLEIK ; what t1/2 value has been reported?
0.3

t1/2 lookup needed for H2aM8321N (antibody, mouse IgG2, V domains shown, also called H2M8321N) VH: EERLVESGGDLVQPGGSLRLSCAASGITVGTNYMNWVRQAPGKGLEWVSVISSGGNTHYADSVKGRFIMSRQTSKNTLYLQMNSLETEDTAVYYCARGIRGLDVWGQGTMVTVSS VL: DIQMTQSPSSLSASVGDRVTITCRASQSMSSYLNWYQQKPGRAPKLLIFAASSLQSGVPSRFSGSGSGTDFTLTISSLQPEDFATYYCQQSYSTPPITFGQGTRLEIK , thanks.
3.2
